Data provenance: ChEMBL document CHEMBL5223074

Each entry below carries its recorded IC50.
Test system: BaF3
Experiment description: Antiproliferative activity against mouse BaF3-LMNA-NTRK1 cells assessed as cell viability measured after 72 hrs
Format: functional, cell-based
Setup conditions: BaF3, 72 h
The reply should contain only the number, in nM.

O=C(N[C@H]1CC[C@H](O)CC1)c1cnn2ccc(NCc3cccc(F)c3)nc12 : 316
CN(Cc1cccc(F)c1)c1ccn2ncc(C(=O)N[C@H]3CC[C@H](O)CC3)c2n1 : 81.1
CO[C@H]1CC[C@H](NC(=O)c2cnn3ccc(N(C)Cc4cccc(F)c4)nc23)CC1 : 41.7

# evaluate next
Give the measured IC50 of "O=C(Nc1cnn2ccc(N3CCC[C@@H]3c3cc(F)ccc3F)nc12)N1CC[C@H](O)C1" . 18.4
